Recorded EC50, one value per entry.
- targetOfAssay: UniProt P21453
- protocolSummary: β-Arrestin2 recruitment assay (PathHunter), S1P1 CHO-K1 cells
- Format: cell-based
- experimentalContext: β-arrestin2 recruitment, S1P1; read-out: hS1P1 B-arrestin2 pEC50 (converted)
- Sequence (P21453 whole entry): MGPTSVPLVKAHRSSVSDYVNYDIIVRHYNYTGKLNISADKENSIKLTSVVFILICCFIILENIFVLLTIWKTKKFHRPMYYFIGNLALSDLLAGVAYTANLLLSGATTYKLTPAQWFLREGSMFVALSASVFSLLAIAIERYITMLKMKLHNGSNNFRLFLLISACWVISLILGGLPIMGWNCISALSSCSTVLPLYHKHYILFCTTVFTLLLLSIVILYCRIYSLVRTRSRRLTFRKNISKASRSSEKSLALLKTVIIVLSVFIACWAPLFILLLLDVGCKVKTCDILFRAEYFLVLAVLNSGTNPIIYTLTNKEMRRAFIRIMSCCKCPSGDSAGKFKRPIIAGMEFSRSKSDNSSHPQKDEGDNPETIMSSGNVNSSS
- Sequence (P32121 whole entry partner): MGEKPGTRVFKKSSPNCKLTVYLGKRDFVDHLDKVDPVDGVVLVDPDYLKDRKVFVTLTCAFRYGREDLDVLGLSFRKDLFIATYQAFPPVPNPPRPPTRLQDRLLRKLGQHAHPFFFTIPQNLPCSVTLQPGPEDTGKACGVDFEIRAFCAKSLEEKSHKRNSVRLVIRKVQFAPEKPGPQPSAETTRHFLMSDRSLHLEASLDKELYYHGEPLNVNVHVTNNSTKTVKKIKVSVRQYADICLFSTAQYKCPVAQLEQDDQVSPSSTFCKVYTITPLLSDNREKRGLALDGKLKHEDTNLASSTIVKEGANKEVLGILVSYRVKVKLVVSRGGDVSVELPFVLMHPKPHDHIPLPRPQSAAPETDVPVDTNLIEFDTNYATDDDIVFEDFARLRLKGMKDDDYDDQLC

smilescode=CC(C)n1ccc2cc(-c3noc(-c4cccnc4)n3)ccc21 experimentalresult="> 10 µM"
smilescode=CCC1(CC)CC(=O)c2cc(-c3nc(-c4cccs4)no3)ccc2O1 experimentalresult="< 10 µM"
smilescode=CCC1(CC)CC(=O)c2cc(-c3nc(-c4ccn[nH]4)no3)ccc2O1 experimentalresult="> 10 µM"

Per the record, N#Cc1cc(-c2nc(-c3ccc4oc(=O)[nH]c4c3)no2)ccc1NCC1CC1 has EC50 of < 10 µM

Per the record, N#Cc1cc(-c2nnc(-c3ccc4[nH]c(=O)oc4c3)o2)ccc1NCC1CC1 has EC50 of > 10 µM

* * *

- targetOfAssay: human sphingosine-1-phosphate receptor 1 (S1P1) (Homo sapiens)
- protocolSummary: β-Arrestin2 recruitment assay (PathHunter), S1P1 CHO-K1 cells
- Format: cell-based
- experimentalContext: CHO-K1, β-arrestin2 recruitment; efficacy normalized to maximum efficacy of fingolimod; read-out: hS1P1 B-arrestin2 SPAN
quantityKind: Emax

smilescode=CC(C)n1nnc2cc(-c3noc(C45CC6CC(CC(C6)C4)C5)n3)ccc21 experimentalresult="< 75%"
smilescode=CC(C)c1cc(-c2nc(-c3ccc4c(c3)nnn4C(C)C)no2)ccn1 experimentalresult="< 75%"
smilescode=CC(C)n1nnc2cc(-c3nc(-c4cccc5c4OCCC5)no3)ccc21 experimentalresult="> 75%"
smilescode=Cc1ccc(-c2noc(-c3ccc4c(c3)nnn4C3CCCC3)n2)cc1 experimentalresult="< 75%"
smilescode=Cc1ccc(-c2nc(-c3ccc4c(c3)nnn4C3CCCC3)no2)cc1 experimentalresult="< 75%"

Per the record, CC(C)n1nnc2cc(-c3noc(C4CCCC4)n3)ccc21 has Emax of < 75%

Per the record, CCC1(CC)CC(=O)c2cc(-c3nc(-c4ccc5[nH]ncc5c4)no3)ccc2O1 has Emax of > 75%

Per the record, CCC1(CC)CC(=O)c2cc(-c3nnc(-c4ccccc4OC)o3)ccc2O1 has Emax of > 75%

Per the record, COc1ccccc1-c1nnc(-c2ccc3[nH]oc(=O)c3c2)o1 has Emax of < 75%

* * *

- targetOfAssay: human sphingosine-1-phosphate receptor 1 (S1P1) (Homo sapiens, UniProt P21453)
- protocolSummary: Inhibition of cAMP production (HTRF cAMP HiRange), S1P1 CHO-K1 cells
- Type: cell-based
- experimentalContext: inhibition of cAMP production, S1P1; read-out: hS1P1 CAMP pEC50 (converted)
- Sequence (P21453 whole entry): as the sequence (P21453 whole entry) above
Recorded EC50, one value per entry.

molecule="CC1CC(=O)c2ccc(-c3nc(-c4ccncc4)no3)cc2O1 (centres unmarked) [Compound 536]" targetofassay="human sphingosine-1-phosphate receptor 1 (S1P1) (Homo sapiens, UniProt P21453)" experimentalresult="> 316 nM"

Simply: CC(C)Nc1ccc(-c2nnc(-c3ccc4c(c3)ncn4C)o2)cc1C#N [Compound 572] , human sphingosine-1-phosphate receptor 1 (S1P1) (Homo sapiens, UniProt P21453), EC50 = > 316 nM

Simply: CCC1(CC)CC(=O)c2cc(-c3nc(-c4ccc(C(F)(F)F)nc4)no3)ccc2O1 [Compound 548] , human sphingosine-1-phosphate receptor 1 (S1P1) (Homo sapiens, UniProt P21453), EC50 = > 316 nM

Simply: COc1cc(C)c2nc(-c3ccc4c(c3)nnn4C(C)C)oc2c1 [Compound 436] , human sphingosine-1-phosphate receptor 1 (S1P1) (Homo sapiens, UniProt P21453), EC50 = < 316 nM

Simply: COc1ccccc1-c1noc(-c2ccc3c(c2)ncn3C(C)C)n1 [Compound 373] , human sphingosine-1-phosphate receptor 1 (S1P1) (Homo sapiens, UniProt P21453), EC50 = > 316 nM

* * *

- targetOfAssay: human sphingosine-1-phosphate receptor 1 (S1P1) (Homo sapiens)
- protocolSummary: β-Arrestin2 recruitment assay (PathHunter), S1P1 CHO-K1 cells
- Type: cell-based
- experimentalContext: CHO-K1, β-arrestin2 recruitment; efficacy normalized to maximum efficacy of fingolimod; read-out: hS1P1 B-arrestin2 SPAN
quantityKind: Emax

Examples from the recorded data:
smilescode=CCC1(CC)CC(=O)c2cc(-c3nc(-c4ccc(S(=O)(=O)N(C)C)cc4)no3)ccc2O1 experimentalresult="< 75%"
smilescode=CC(C)Oc1ccc(-c2noc(-c3ccc4c(c3)nnn4C(C)C)n2)cc1C(F)(F)F experimentalresult="> 75%"

Simply: CC(C)n1nnc2cc(-c3nc(-c4ccc(COc5ccccc5)cc4)no3)ccc21 , human sphingosine-1-phosphate receptor 1 (S1P1) (Homo sapiens), Emax = < 75%

Simply: Brc1ccccc1-c1nc(-c2ccc3c(c2)nnn3C2CCCC2)no1 , human sphingosine-1-phosphate receptor 1 (S1P1) (Homo sapiens), Emax = > 75%

Simply: Cc1nccnc1-c1nc(-c2ccc3c(c2)nnn3C(C)C)no1 , human sphingosine-1-phosphate receptor 1 (S1P1) (Homo sapiens), Emax = < 75%

Simply: CC(C)n1nnc2cc(-c3nc(-c4ccccc4O)no3)ccc21 , human sphingosine-1-phosphate receptor 1 (S1P1) (Homo sapiens), Emax = > 75%

Simply: C=CCNc1ccc(-c2nc(-c3ccc4[nH]nnc4c3)no2)cc1C#N , human sphingosine-1-phosphate receptor 1 (S1P1) (Homo sapiens), Emax = < 75%

Simply: c1ccc(-c2noc(-c3ccc4[nH]nnc4c3)n2)cc1 , human sphingosine-1-phosphate receptor 1 (S1P1) (Homo sapiens), Emax = < 75%

Simply: C=CCNc1ccc(-c2nc(-c3cn[nH]c3)no2)cc1C#N , human sphingosine-1-phosphate receptor 1 (S1P1) (Homo sapiens), Emax = > 75%

* * *

- targetOfAssay: human sphingosine-1-phosphate receptor 1 (S1P1) (Homo sapiens, UniProt P21453)
- protocolSummary: Inhibition of cAMP production (HTRF cAMP HiRange), S1P1 CHO-K1 cells
- Type: cell-based
- experimentalContext: inhibition of cAMP production; potency; read-out: hS1P1 CAMP pEC50 (converted)
- Protocol: Stable clonal Chinese hamster ovary K1 (CHO-K1) cells co-expressing EA-β-arrestin2 and the human sphingosine-1-phosphate receptor 1 (NM_001400, S1P1) with a C-terminal Prolink™ tag were purchased from DiscoverX corporation (Cat #: 93-0207C2). […] Agonist-promoted G-protein responses were determined by measuring changes in intracellular cAMP using the HTRF® cAMP HiRange kit (CisBio, Cat #: 62AM6PEJ) based on time-resolved fluorescence resonance energy transfer (TR-FRET) technology. […]
quantityKind: EC50

Examples from the recorded data:
smilescode=Brc1ccccc1-c1nc(-c2ccc3c(c2)nnn3Cc2ccccc2)no1 targetofassay="human sphingosine-1-phosphate receptor 1 (S1P1) (Homo sapiens, UniProt P21453)" experimentalresult="> 316 nM"
smilescode=CC(C)n1nnc2cc(-c3nc(-c4ccccc4Br)no3)ccc21 targetofassay="human sphingosine-1-phosphate receptor 1 (S1P1) (Homo sapiens, UniProt P21453)" experimentalresult="< 316 nM"
smilescode=CCC1(CC)CC(=O)c2cc(-c3nc(-c4ccnc(O)c4)no3)ccc2O1 targetofassay="human sphingosine-1-phosphate receptor 1 (S1P1) (Homo sapiens, UniProt P21453)" experimentalresult="< 316 nM"
smilescode=CC(C)n1nnc2cc(-c3nc(-c4ccc5nncn5c4)no3)ccc21 targetofassay="human sphingosine-1-phosphate receptor 1 (S1P1) (Homo sapiens, UniProt P21453)" experimentalresult="> 316 nM"

Attention now shifts to the item below.
Simply: CC(C)n1nnc2cc(-c3nc(-c4ccccc4OC(F)(F)F)no3)ccc21 , human sphingosine-1-phosphate receptor 1 (S1P1) (Homo sapiens, UniProt P21453), EC50 = < 316 nM

* * *

- targetOfAssay: human sphingosine-1-phosphate receptor 1 (S1P1) (Homo sapiens)
- protocolSummary: β-Arrestin2 recruitment assay (PathHunter), S1P1 CHO-K1 cells
- Type: cell-based
- experimentalContext: β-arrestin2 recruitment, S1P1; read-out: hS1P1 B-arrestin2 pEC50 (converted)
quantityKind: EC50

Examples from the recorded data:
compound=CCC1(CC)CC(=O)c2cc(-c3nc(-c4ccc5nonc5c4)no3)ccc2O1 experimentalresult="> 10 µM"
compound=CCC1(CC)CC(=O)c2cc(-c3ncc(-c4ccccc4OC)cn3)ccc2O1 experimentalresult="< 10 µM"
compound=CC(C)n1ccc2cc(-c3noc(-c4ccccn4)n3)ccc21 experimentalresult="> 10 µM"

Attention now shifts to the item below.
Simply: CCC1(CC)CC(=O)c2cc(-c3nc(-c4ccc5[nH]c(=O)oc5c4)no3)ccc2O1 , human sphingosine-1-phosphate receptor 1 (S1P1) (Homo sapiens), EC50 = < 10 µM

* * *

- targetOfAssay: human sphingosine-1-phosphate receptor 1 (S1P1) (Homo sapiens, UniProt P21453)
- protocolSummary: Inhibition of cAMP production (HTRF cAMP HiRange), S1P1 CHO-K1 cells
- Format: cell-based
- experimentalContext: CHO-K1; efficacy normalized to maximum efficacy of fingolimod; read-out: hS1P1 CAMP SPAN
quantityKind: Emax

Per the record, CCC1(CC)CC(=O)c2cc(-c3nc(-c4ccc(C(F)(F)F)nc4)no3)ccc2O1 has Emax of < 75%

Per the record, Cc1occc1-c1noc(-c2ccc3c(c2)nnn3C(C)C)n1 has Emax of > 75%

Per the record, N#Cc1cc(-c2nnc(-c3ccc4[nH]c(=O)oc4c3)o2)ccc1NCC1CC1 has Emax of < 75%

Per the record, COc1cccc(-c2nc(-c3ccc4c(ccn4C(C)C)c3)no2)c1 has Emax of < 75%

Per the record, CC(C)Nc1ccc(-c2nnc(-c3ccc4ncn(C)c4c3)o2)cc1C#N has Emax of > 75%

Per the record, CC(C)n1ccc2cc(-c3noc(-c4cccc(F)c4)n3)ccc21 has Emax of < 75%

Per the record, COc1ccccc1-c1nc(-c2ccc3c(ccn3C(C)C)c2)ns1 has Emax of > 75%

Per the record, CC(C)n1ccc2cc(-c3noc(-c4ccccc4F)n3)ccc21 has Emax of > 75%

Per the record, COc1cnccc1-c1nc(-c2ccc3c(ccn3C(C)C)c2)no1 has Emax of > 75%
